Test system: Plasmodium falciparum NF54/iGP1_RE9H ulg8 stage V gametocytes
Assay: gametocyte viability (luciferase signal relative to DMSO control) (% of DMSO control); higher = less gametocytocidal activity, active = 50 or less
Settings: concentration: 10 µM; exposure time: 72 h
Counter-ions that a name gives are not always drawn. The campaign covered roughly 1,300 compounds. About 40 (3%) showed activity. The list comes from a sample in which actives are over-represented; it also holds close analogues and randomly drawn compounds.
We label by threshold. Values of gametocyte viability strictly beneath 80 are yes (1). Values of 80 and up are no (0).

molecule	label
CC[C@@]1([C@@H]2O[C@@H]([C@H]3O[C@@](O)(CO)[C@H](C)C[C@@H]3C)C[C@@H]2C)CC[C@H]([C@]2(C)CC[C@]3(C[C@H](O)[C@@H](C)[C@@H]([C@@H](C)[C@@H](OC)[C@H](C)C(=O)O)O3)O2)O1 [Monensin sodium salt]	yes (1)
CC(C)C[C@H]1C(=O)N2CCC[C@H]2[C@]2(O)O[C@](NC(=O)[C@@H]3C=C4c5cccc6[nH]c(Br)c(c56)C[C@H]4N(C)C3)(C(C)C)C(=O)N12 [Bromocryptine mesylate]	yes (1)
CCCCCC[C@H]1C(=O)O[C@H](C)[C@H](NC(=O)c2cccc(NC=O)c2O)C(=O)O[C@@H](C)[C@@H]1OC(=O)CC(C)C [Antimycin A]	no (0)
Fc1ccc(C(OCCN2CCN(CCCc3ccccc3)CC2)c2ccc(F)cc2)cc1	no (0)
CN(C)[C@@H]1C(=O)C(C(N)=O)=C(O)[C@@]2(O)C(=O)C3=C(O)c4c(O)ccc(Cl)c4[C@@](C)(O)[C@H]3C[C@@H]12 [Chlortetracycline hydrochloride]	no (0)

Now consider a different molecule.
Prompt line: Record C#C[C@]1(O)CC[C@H]2[C@@H]3CCC4=CC(=O)CCC4=C3C=C[C@@]21CC [Gestrinone] : is its gametocyte viability strictly below 80?
Response line: yes (1)

Numbers sourced from the supplement of paper PMC12297408.
